Data origin, for the record: PubChem BioAssay

# Protocol details: inhibitors of TNFa-induced NFkB p65 translocation, primary screen, imaging, HUVEC, MLSMR starter and 10KST1 sets (AID 438);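 further: compound added about 3h40 before a 20 min TNFalpha stimulation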
# Applied conditions: HUVEC TNFa-induced p65 nuclear translocation; measured here: nuclei count (cytotoxicity indicator), at 2.08 µM
Param threshold (500) applies to cell count; output TRUE when value >= threshold, FALSE when value < threshold.

{"columns": ["Compound", "Class label"],
 "data": [
  ["COCc1nnc(SCC(=O)NC(C)c2ccccc2)n1-c1ccccc1 (stereo not given)", "FALSE"],
  ["CCOC(=O)c1nnc2cc(-c3ccc(Br)cc3)nn2c1C", "TRUE"],
  ["CC(=O)NC1=NC(=O)/C(=C/N2CCCCC2)S1", "FALSE"],
  ["O=C(COC(=O)C1=COCCO1)Nc1ccccc1Oc1ccccc1", "TRUE"],
  ["O=C(O)CCc1ccc(-c2cccs2)n1NC(=O)c1ccccc1Br", "FALSE"],
  ["CCCc1cc(-c2n[nH]c(C)c2-c2ccc(C(=O)OCC)o2)c(O)cc1O", "TRUE"],
  ["CCOc1ccc2ccccc2c1/C=N/n1cncn1", "FALSE"],
  ["COc1cc2[nH]c(=O)n(CCC(=O)N3CCc4ccccc4C3)c(=O)c2cc1OC", "FALSE"],
  ["CCCCN1CN(S(=O)(=O)c2cccs2)c2nc3ccccc3nc21", "FALSE"],
  ["O=C(Nc1ccc(NC(=O)C2CC2)cn1)c1ccccc1Cl", "TRUE"],
  ["Cc1ccc2[nH]c3c(c2c1)CN(C(=O)CN1CCN(c2cccc(C)c2C)CC1)CC3", "FALSE"],
  ["COc1ccc(S(=O)(=O)N(C)CC(=O)N2CCCCC2)cc1Cl", "FALSE"],
  ["Cc1ccc2c(c1)CCCN2C(=O)c1ccc2c(c1)OCO2", "FALSE"],
  ["O=C(CCSc1ccccc1)Nc1ccc(S(=O)(=O)N2CCOCC2)cc1", "FALSE"],
  ["Nc1nnc(-c2ccccc2)c(-c2ccccc2)n1", "TRUE"],
  ["O=c1c2c3c(sc2n2cnnc2n1CCc1ccccc1)CCCC3", "TRUE"],
  ["Cc1cc(=O)oc2ccc(OCC(=O)N3CCC(C)CC3)cc12", "FALSE"],
  ["CC1(C)NC(=O)N(CCCOc2ccc(Br)cc2Cl)C1=O", "FALSE"],
  ["COc1cccc(CC(=O)Nn2c(C)nc3ccccc3c2=O)c1", "FALSE"],
  ["Cc1cccc(-n2nnnc2SCc2csc(-c3ccccc3)n2)c1", "FALSE"],
  ["c1ccc(Cn2nnnc2CN2CCCC2)cc1", "FALSE"],
  ["CC(C)(C)c1ccc2c(c1)OCC(C(=O)O)O2 (stereo not given)", "FALSE"],
  ["Cn1c(SCc2ccc3c(c2)OCO3)nnc1-c1ccccc1", "FALSE"],
  ["Clc1ccccc1OCCCCn1ccnc1", "FALSE"],
  ["COc1ccc(OC)c(C2=NOC(C(=O)Nc3cc(C)nn3-c3ccccc3)C2)c1 (stereo not given)", "TRUE"],
  ["O=C1NC(c2ccco2)Nc2ccccc21 (stereo not given)", "TRUE"],
  ["C=C(c1cccc2ccccc12)P(=O)(O)O", "FALSE"],
  ["COc1ccc(S(=O)(=O)NCC(=O)N(CC(=O)NCC2CCCO2)c2ccccc2C)cc1 (stereo not given)", "FALSE"],
  ["CCc1ccccc1NC(=O)CSc1nc2n[nH]c(C)c2c(=N)n1-c1ccc(OC)cc1", "FALSE"],
  ["Cc1ccc2occ(CN3CCN(c4ccccc4)CC3)c(=O)c2c1", "FALSE"],
  ["COc1ccccc1C(=O)Nc1ccccc1C(=O)N1CCCC1", "TRUE"],
  ["COc1ccc(-n2nc(C(=O)Nc3ccc4c(c3)OCO4)c3c4ccccc4n(C)c3c2=O)cc1", "FALSE"],
  ["COc1ccc(-n2cnnc2SCCC#N)cc1", "TRUE"]
]}

---

Parameter: NADPH fluorescence slope. Scope: all listed entries.
# Target or test system: Voltage-gated potassium channel subunit beta-2 (Rattus norvegicus)
# Protocol details: enhancers of rat Kvbeta2 NADPH turnover – biochemical, NADPH fluorescence, primary screen (AID 623);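 further: fluorescence intensity change per second fitted from 20 to 320 s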
# Applied conditions: Recombinant KvBeta, NADPH fluorescence decrease slope, 10 min; at 10 µM; stronger effect = lower value
Attribute measured: NADPH fluorescence slope

{"columns": ["Structure smiles", "Attribute measured", "Result number"],
 "data": [
  ["O=C(Cn1c(=O)oc2ccccc21)N1CCN(c2ccccc2)CC1", "NADPH fluorescence slope", "-4.3e-05"],
  ["Cc1nc(N2CCN(c3ncccn3)CC2)c2oc3ccccc3c2n1", "NADPH fluorescence slope", "-1.4e-05"],
  ["CCOC(=O)Cc1csc(NC(=O)c2cccc(OC)c2)n1", "NADPH fluorescence slope", "-3.2e-05"],
  ["CCCCN(C)Cc1c(O)ccc2c(-c3ccccc3)cc(=O)oc12", "NADPH fluorescence slope", "-2.3e-05"]
]}

---

# Protocol details: TLR3 IRF3 reporter activation blockers – cell-based, poly I:C stimulus, luciferase, 10K MLSCN set, primary screen (AID 602277)
# Applied conditions: HEK293-TLR3 RL24 IRF3 luciferase reporter, at 10 µM
Active and inactive are the calls of the source.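 The calls were made as follows: active = inhibition of the reporter signal at or above 50%; inactive = inhibition below 50%.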
Classes used: True (active), False (inactive)

{"columns": ["Molecule", "Class label"],
 "data": [
  ["Cc1ccc(S(=O)(=O)NCCSc2nnnn2-c2ccc(C(N)=O)cc2)cc1", "False"],
  ["CCN(C(C)=O)c1nnc(CSc2nc3ccccc3s2)s1", "False"],
  ["CN1CCN(c2ccc(Cl)cc2NC(=O)c2cccc(S(=O)(=O)N(C)C)c2)CC1", "False"],
  ["Cn1c(=O)[nH]c(=O)c2c1nc(N1CCOCC1)n2CC(O)COc1ccc2ccccc2c1 (stereo not drawn)", "False"],
  ["Cc1cc(=O)oc2ccc(OCC(=O)N(Cc3ccc(F)cc3)Cc3ccco3)cc12", "False"],
  ["COC(=O)C1=C(C)OC(N)=C(C#N)C1c1ccccc1 (stereo not drawn)", "False"],
  ["CCN(C(=O)Cc1c(C(=O)O)[nH]c2ccccc12)c1cc(OC)ccc1OC", "False"],
  ["CCCCOc1ccccc1NC(=O)c1ccco1", "False"],
  ["CCn1cc(SCC(=O)NCC2CCCO2)c2ccccc21 (stereo not drawn)", "False"],
  ["CCN(CC)S(=O)(=O)c1ccc(N2CCCC2)c(C(=O)OCC(=O)/C(C#N)=C(\\C)N)c1", "False"],
  ["CCCn1cnc2c(c1=O)c1nc3ccccc3nc1n2Cc1ccccc1OC", "True"],
  ["O=C(Nc1cccc(NC(=O)c2ccco2)c1)c1ccc2c(c1)OCO2", "False"],
  ["O=C(CSc1nnc(-c2ccccn2)n1Cc1ccccc1)N1CCCC1", "False"],
  ["Cn1nc(C(=O)Nc2cccc(C(F)(F)F)c2)ccc1=O", "False"],
  ["CCOC(=O)c1c(N)c(C#N)nn1-c1ccccc1C(=O)OC", "False"],
  ["COc1ccc(S(=O)(=O)NCc2ccc3c(c2)OCO3)cc1C(=O)O", "False"],
  ["CSCC[C@@H](Nc1nc(-c2ccccc2)nc2c1oc1ccccc12)C(=O)O", "False"],
  ["COc1cccc(NC(=O)CSc2nnnn2C(C)C)c1", "False"],
  ["COc1ccc2nc(NC(=O)CSc3nnc(-c4ccoc4C)n3C)sc2c1", "False"],
  ["O=C(Nc1ccc(Cl)cc1)N1CCSCC1", "False"],
  ["COc1ccc(-c2nnn(CCc3nn[nH]n3)n2)cc1OC", "False"],
  ["O=C(NCCN1CCOCC1)C1CCC(=O)N1Cc1ccccc1Cl (stereo not drawn)", "False"],
  ["O=C(Nc1ccc(F)cc1)NC1CCN(Cc2nnnn2Cc2ccco2)CC1", "False"],
  ["CCCCN(CCCC)C(=O)CN(C)S(=O)(=O)c1ccc2c(c1)n(C)c(=O)c(=O)n2C", "False"],
  ["CCC(=O)N1CCc2cc(Br)cc(S(=O)(=O)C3(C(=O)OC)CC3)c21", "False"],
  ["CCOC(=O)c1[nH]c(C)c(C(=O)Nc2ccc(C)c(Cl)c2)c1C", "False"],
  ["CCOC(=O)N1CCN(S(=O)(=O)c2cc(C)c(C)cc2C)CC1", "False"],
  ["Cc1ccccc1NS(=O)(=O)c1cc(C(=O)N2CCCC2)ccc1C", "False"],
  ["CCN(CC)C(c1ccc(C)cc1)c1nnnn1C1CCCCC1 (stereo not drawn)", "False"],
  ["COc1ccccc1-n1c(SCC(=O)Nc2ccc3c(c2)OCO3)nc2c(c1=O)SCC2", "False"],
  ["O=C(C1CCCO1)N1CCc2ccccc21 (stereo not drawn)", "False"],
  ["O=C(NCc1nc2ccccc2[nH]1)c1ccco1", "False"],
  ["CCC(Sc1ccc2nnc(-c3ccc(F)cc3)n2n1)C(=O)OC (stereo not drawn)", "False"],
  ["Cc1occc1-c1nnc(SCC(=O)NCC2CCCO2)n1C (stereo not drawn)", "False"],
  ["COc1ccc(NC(=O)N2CCC(O)(c3cccnc3)CC2)c(OC)c1", "False"],
  ["COc1ccccc1-c1cc(C(=O)Nc2cc(C)nn2-c2ccccc2)no1", "False"],
  ["COc1ccccc1C1/C(=C(/O)c2ccccc2)C(=O)C(=O)N1CC(C)C (stereo not drawn)", "False"],
  ["O=C1c2ccccc2C(Nc2ccc3c(c2)OCCO3)N1Cc1ccco1 (stereo not drawn)", "False"]
]}
